# Tested on: 786-0 renal
# assay.method.text: NCI tumour cell line growth inhibition, 48 h
# TGI values compiled below

Some entries whose results are on file:
| molecule | target.under.test | assay.value |
| --- | --- | --- |
| CCOC(=O)C1CC/C(=C(/C#N)C(=O)OC)N1 (stereo unspecified) | 786-0 renal | > 100 µM |
| CCOC(=O)C(Cc1ccc(OC)cc1)C(=O)OCC | 786-0 renal | 18.7 µM |
| Cc1onc(-c2c(F)cccc2Cl)c1C(=O)N[C@@H]1C(=O)N2[C@@H]1SC(C)(C)[C@@H]2C(=O)O | 786-0 renal | > 100 µM |

Moving on to the next molecule.
**Q:** Entry COC(=O)CCc1ccc2c(c1)CC1(C2)Cc2ccc3c(c2C1)CCC3 (stereo unspecified) , system 786-0 renal: what TGI was measured?
**A:** > 100 µM

====

# System: SK-MEL-28 melanoma
# assay.method.text: NCI tumour cell line growth inhibition, 48 h
recorded.endpoint: GI50

| compound | recorded.endpoint | assay.value |
| --- | --- | --- |
| CC(=O)/C=C/C1=C(c2ccsc2)c2ccccc2CC1 | GI50 | 49100 nM |
| Cc1sc(/N=C2/NC(=O)CS2)nc1-c1nc(/N=C2/NC(=O)CS2)sc1C | GI50 | 26700 nM |
| C[C@@H]1CN2[C@H]3[C@@H]1CC[C@]31CCC(=O)O[C@]1(C)[C@@H]1CC[C@H]3CCC=C3[C@@H]12 | GI50 | > 70000 nM |

**Q:** Which GI50 value belongs to CCNCCNc1cc(-c2cccc(C(F)(F)F)c2)c(C#N)c2nc3ccccc3n12 ?
**A:** 1860 nM

**Q:** Which GI50 value belongs to Oc1[nH]c2ccc(Cl)cc2c1/C=c1/ccc2c(c1)N=C(c1cc(F)cc(F)c1)N=2 ?
**A:** 5060 nM

**Q:** Which GI50 value belongs to CC[O-].CC[O-].O=C([CH-]C(=O)c1ccccc1)c1ccccc1.O=C([CH-]C(=O)c1ccccc1)c1ccccc1.[Ti+4] ?
**A:** > 100000 nM

**Q:** Which GI50 value belongs to CNCCOc1nc2c3cnccc3cc(-c3cc(OC)c(OC)c(OC)c3)c2c2ccncc12 ?
**A:** 125 nM

**Q:** Which GI50 value belongs to N#Cc1c(Oc2ccc(F)c(NC(=O)Cc3cccc(C(F)(F)F)c3)c2)ccc2nc(NC(=O)C3CC3)sc12 ?
**A:** 29.2 nM

**Q:** Which GI50 value belongs to O=C(CC1(O)C(=O)Nc2c(Cl)ccc(Cl)c21)c1ccc(C2CC2)cc1 (configuration not stated) ?
**A:** 2510 nM

**Q:** Which GI50 value belongs to COc1cc(C2C(C#N)=C(N)Oc3cc4c(cc32)OCO4)cc2c1OCO2 (configuration not stated) ?
**A:** 1570 nM

**Q:** Which GI50 value belongs to CS[C@@]1(C(=O)Nc2ccc3[nH]nc(-c4ccc(OC(C)C)nc4)c3c2)CCN(CC(=O)N2CC=C(c3ccc(-c4ncn(C)n4)cc3)CC2)C1 ?
**A:** 29.3 nM

**Q:** Which GI50 value belongs to CC1(C)CC2CC(C)(CN2c2ncnc3ccc(Br)cc23)C1 (configuration not stated) ?
**A:** 13900 nM
